tested_on: IL-23 (human, p19/p40 heterodimer) (Homo sapiens, UniProt Q9NPF7;P29460 SEQ:20-189,SEQ:23-328)
Sequence (Q9NPF7 20-189, chain 1 of 2): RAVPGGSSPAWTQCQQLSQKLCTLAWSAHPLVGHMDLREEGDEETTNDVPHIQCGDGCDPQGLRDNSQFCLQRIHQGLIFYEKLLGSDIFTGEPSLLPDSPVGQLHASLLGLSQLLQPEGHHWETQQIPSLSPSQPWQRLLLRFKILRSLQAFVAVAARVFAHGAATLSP
Sequence (P29460 23-328, chain 2 of 2): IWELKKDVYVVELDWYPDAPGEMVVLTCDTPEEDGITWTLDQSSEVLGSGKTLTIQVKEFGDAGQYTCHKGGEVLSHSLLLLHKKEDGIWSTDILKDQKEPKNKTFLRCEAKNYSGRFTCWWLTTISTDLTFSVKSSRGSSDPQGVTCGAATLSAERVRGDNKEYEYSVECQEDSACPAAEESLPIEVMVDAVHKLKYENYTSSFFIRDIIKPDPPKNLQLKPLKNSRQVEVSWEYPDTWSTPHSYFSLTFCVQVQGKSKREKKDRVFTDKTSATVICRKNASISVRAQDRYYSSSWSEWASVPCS
protocol_notes: filter; 1X PBS, tRNA, ssDNA, BSA, 30 min RT
measurement_setup: tags: R&D Systems, carrier free; label: 5'-32P; G4 (predicted)
pKd: −log10 of the molar value.
Class met: pKd at least 8. Class not met: pKd below 8.

binder	assigned_label
ARC632 (mixed, 2'-deoxy A and G, 2'-OMe C and U (dRmY)) RNA: GGGAGAGGAGAGAACGUUCUACAAUUGCAGGUGGUGCCGGGGGUUGGGGGCGGGUCGAUCGAUCGAUCAUCGAUG	not met
ARC611 (mixed, 2'-deoxy A and G, 2'-OMe C and U (dRmY)) RNA: GGGAGAGGAGAGAACGUUCUACAGGCAAGGCAAUUGGGGAGUGUGGGUGGGGGGUCGAUCGAUCGAUCAUCGAUG	not met
ARC614 (mixed, 2'-deoxy A and G, 2'-OMe C and U (dRmY)) RNA: GGGAGAGGAGAGAACGUUCUACAAGGCGGUACGGGGAGUGUGGGUUGGGGCCGGUCGAUCGAUCGAUCAUCGAUG	met
ARC621 (mixed, 2'-deoxy A and G, 2'-OMe C and U (dRmY)) RNA: GGGAGAGGAGAGAACGUUCUACAGGCGGUUACGGGGGAUGCGGGUGGGACAGGUCGAUCGAUCGAUCAUCGAUG	not met
ARC612 (mixed, 2'-deoxy A and G, 2'-OMe C and U (dRmY)) RNA: GGGAGAGGAGAGAACGUUCUACAGGCAAGUAAUUGGGGAGUGCGGGCGGGGGGGUCGAUCGAUCGAUCAUCGAUG	met
